# experiment: PPC-1 cell viability loss under TRAIL – PPC-1 cells, ATPLite luminescence, uHTS, TRAIL potentiator project, primary screen (AID 1443);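 note: plate controls were cells with TRAIL plus DMSO for no effect and medium-only wells lacking cells for full effect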
# settings: PPC-1 cells + TRAIL; at 4 µM unless noted
Out of some 220,000 compounds screened, about 880 (0.4%) were called active.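 Rule for the calls: active = cell killing above 50% in the first pass at 4 µM, then a duplicate retest at 5 µM averaging 50% or more; inactive = the rest.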 The entries come from a sample that favours actives as a whole.
Pick from active, inactive when you respond.

As a guide, the following entries are already answered.
# compound, labelValue
measured = [
    ("Cc1cc(C2=NNC(=Nc3ccc(S(=O)(=O)N4CCOCC4)cc3)SC2)c(C)n1CC1CCCO1 (stereo unspecified)", "inactive"),
    ("Cc1nonc1C(=O)N/N=C/c1ccc(O)cc1", "inactive"),
    ("COCCn1c(C)cc(C2=NNC(=Nc3ccc(F)cc3)SC2)c1C", "inactive"),
    ("C=CCn1c(C)cc(C2=NNC(=NCC)SC2)c1C", "active"),
    ("O=S(=O)(Nc1ccc(OC(F)(F)F)cc1)c1cccc2nonc12", "inactive"),
]

Ask: Test call, this compound: `Cc1c(C(=O)c2cccc([N+](=O)[O-])c2)c2ccccn2c1CCC#N`
Reply: inactive

Ask: Can you look up the reported call for `COc1ccc(-c2cn3ccc(C)cc3n2)cc1` for me?
Reply: active

###

# experiment: PPC-1 cell viability loss under TRAIL – PPC-1 cells, ATPLite luminescence, uHTS, TRAIL potentiator project, primary screen (AID 1443);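 note: plate controls were cells with TRAIL plus DMSO for no effect and medium-only wells lacking cells for full effect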
# settings: PPC-1 cells + TRAIL; at 4 µM unless noted
The whole screen tested about 220,000 compounds, of which about 880 (0.4%) were called active.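 How the source made its calls: active means cell killing above 50% in the first pass at 4 µM, then a duplicate retest at 5 µM averaging 50% or more; inactive means the rest.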 This is one part of a sample in which actives are shown more often than they occur.
Return exactly one item of active, inactive

Known results for compounds:
# compound, labelValue
rows = [
    ("COCCNc1nc(-c2ccccc2)nc2c1oc1ccccc12", "inactive"),
    ("COc1cccc(NC(=O)CC(c2ccc(OC(C)C)cc2)c2ccccc2OC)c1 (stereo not given)", "inactive"),
]

Ask: Which result was noted for this compound in the test: `O=C(NCc1ccccn1)c1cc(-c2ccccc2Cl)on1`
Reply: inactive

Ask: Could you kindly confirm the outcome this assay logged for CC(C(=O)Nc1ccc(F)c(F)c1F)N1CCCCCC1 (stereo not given) ?
Reply: inactive

Ask: Dear colleague, could you share the recorded outcome for CCN(CC)C(=O)CS(=O)CC(=O)Nc1cc(OCCOC)c(Cl)cc1Cl (stereo not given) when you have a moment?
Reply: inactive

Ask: Short answer needed: outcome of this test for `CC(=O)c1sc(NC(=O)c2cccc3ccccc23)nc1C` ?
Reply: inactive

Ask: Hey, what did the test say about `Clc1ccc(-c2cc(-c3ccccn3)on2)c(Cl)c1` ?
Reply: active

###

Each item that follows carries a reported cell killing (% activity).
# experiment: PPC-1 cell viability loss under TRAIL – PPC-1 cells, ATPLite luminescence, uHTS, TRAIL potentiator project, primary screen (AID 1443);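 note: plate controls were cells with TRAIL plus DMSO for no effect and medium-only wells lacking cells for full effect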
# settings: PPC-1 cells + TRAIL, active compounds read high; at 4 µM unless noted
The whole screen tested about 220,000 compounds, of which about 880 (0.4%) were called active. Only a selection was taken, and actives are over-represented in it overall.

These solved cases illustrate the format of a correct answer.
# substanceSmiles, measuredValue
rows = [
    ("COc1ccc(-c2cn3ccsc3n2)cc1", "46.2% (inactive)"),
    ("NS(=O)(=O)c1ccc(NC(=S)Nc2ccc(Br)c(Cl)c2)cc1", "12% (inactive)"),
    ("c1ccc(-c2cn3cccnc3n2)cc1", "13.7% (inactive)"),
]

Here's the next entry for you.
// `CCOC(=O)c1sc(NC(=O)CSc2nc3c(c(=O)n2-c2ccccc2)SCC3)c(C(=O)OCC)c1C` : cell killing (% activity) value = 5.5% (inactive)

###

# experiment: PPC-1 cell viability loss under TRAIL – PPC-1 cells, ATPLite luminescence, uHTS, TRAIL potentiator project, primary screen (AID 1443);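 note: plate controls were cells with TRAIL plus DMSO for no effect and medium-only wells lacking cells for full effect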
# settings: PPC-1 cells + TRAIL, active compounds read high; at 4 µM unless noted
Screen size: about 220,000 compounds; about 880 (0.4%) were called active. For the sample, actives were picked, then their nearest neighbours and some compounds at random.
molecules and their reported cell killing (% activity)
Value expressed in %; do not type the unit.

# molecule, cell killing (% activity) / %
rows = [
    ("Nc1ccccc1SC(C[N+](=O)[O-])c1ccccc1 (stereo not drawn)", 6.4),
    ("CC(NC(=O)CCC(=O)N1CCN(S(=O)(=O)c2ccc(Cl)cc2)CC1)c1ccccc1 (stereo not drawn)", 16.9),
    ("Cc1nc2cc(NC(=O)NC3CC3)ccc2n1C", 14.9),
    ("COc1ccc(NC(=O)C2=NNC(=O)CC2)cc1S(=O)(=O)N1CCCCC1", 2.4),
    ("Cc1ccc(C)n1NC(=O)c1ccc([N+](=O)[O-])cc1", 11.3),
    ("COc1ccc(OC)c(C(=O)c2ccc(Cl)cc2)c1", -11.3),
]

The molecule listed as `O=C(c1ccc(F)cc1)n1cc(C(=S)N2CCOCC2)c2ccccc21` shows cell killing (% activity) equal to 21

So, `O=C(Cn1c(=S)nc2ccccn21)N1CCc2ccccc2C1` ? Its cell killing (% activity) was -12
